# Read-out: E-selectin (Homo sapiens) (UniProt P16581)
# Sequence (P16581 whole entry, looked up): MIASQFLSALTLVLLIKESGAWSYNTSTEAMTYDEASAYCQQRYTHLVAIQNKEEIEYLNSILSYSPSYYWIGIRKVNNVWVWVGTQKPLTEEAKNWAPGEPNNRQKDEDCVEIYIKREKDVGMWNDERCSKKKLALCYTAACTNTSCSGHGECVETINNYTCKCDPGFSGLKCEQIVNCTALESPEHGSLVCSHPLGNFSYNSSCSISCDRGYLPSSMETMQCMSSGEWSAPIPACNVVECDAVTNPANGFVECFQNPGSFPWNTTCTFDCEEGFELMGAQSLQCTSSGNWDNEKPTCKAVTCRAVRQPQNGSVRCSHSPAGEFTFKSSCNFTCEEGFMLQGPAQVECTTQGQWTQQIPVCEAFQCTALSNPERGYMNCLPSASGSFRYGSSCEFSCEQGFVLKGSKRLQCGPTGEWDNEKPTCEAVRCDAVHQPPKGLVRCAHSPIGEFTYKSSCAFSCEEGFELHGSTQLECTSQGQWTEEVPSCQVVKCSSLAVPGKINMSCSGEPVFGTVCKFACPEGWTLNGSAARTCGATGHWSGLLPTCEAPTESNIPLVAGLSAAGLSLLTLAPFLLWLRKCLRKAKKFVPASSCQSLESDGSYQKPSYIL
# ASSAY METHOD TEXT: BSK_LPS_Eselectin: BioMAP Diversity Plus: LPS Assay for Eselectin Biomarker Activity (AID 2283077)
# TEST CONDITIONS: primary human HUVEC with PBMC; actives raise or lower the signal
Calls of active or inactive are those of the source. Rule for the calls: active = hit-call score of the fitted dose curve at least 0.9, where 1 is the maximum; inactive = score below 0.9.
Respond using exactly one of the listed classes: yes (1) (active), no (0) (inactive)

{"COMPOUND": "CCC(C)(c1ccc(O)cc1)c1ccc(O)cc1", "CLASS LABEL": "no (0)"}

Challenge: Please let me know the test result on file for CCC(C)c1cc([N+](=O)[O-])cc([N+](=O)[O-])c1O (stereo not drawn) .
Response given: yes (1)

Challenge: Please let me know the test result on file for CCNc1nc(NC(C)C)nc(SC)n1 .
Response given: no (0)

###

# Read-out: Interleukin-1 alpha (IL1a), IL1A (gene 3552)
# ASSAY METHOD TEXT: BSK_BE3C_IL1a: BioMAP Diversity Plus: BE3C Assay for Interleukin-1 alpha (IL1a) Biomarker Activity (AID 2283016)
# TEST CONDITIONS: primary human bronchial epithelial cells; actives raise or lower the signal
Activity calls are given as the source filed them. Rule for the calls: active = hit-call score of the fitted dose curve at least 0.9, where 1 is the maximum; inactive = score below 0.9.
Respond using exactly one of the listed classes: 1.0 (active), 0.0 (inactive)

Observe how each entry below is paired with its result.
{"COMPOUND": "Clc1ccc(Cl)cc1", "CLASS LABEL": 0.0}
{"COMPOUND": "Cc1ccc(O)c(C)c1", "CLASS LABEL": 0.0}
{"COMPOUND": "CN(C)CCO", "CLASS LABEL": 0.0}

Challenge: Please let me know the test result on file for CC#Cc1cc(C)nc(Nc2ccccc2)n1 .
Response given: 0.0

###

# ASSAY METHOD TEXT: CEETOX_H295R_CORTIC: CeeTox H295R High-throughput Steroidogenesis Assay for Corticosterone (CORTIC) (AID 2283437);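 note: corticosterone secreted into medium quantified by mass spectrometry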
# TEST CONDITIONS: actives raise or lower the signal
The source made the active and inactive calls. How the source made its calls: active means hit-call score of the fitted dose curve at least 0.9, where 1 is the maximum; inactive means score below 0.9.
Respond using exactly one of the listed classes: active, inactive

Observe how each entry below is paired with its result.
{"COMPOUND": "Cc1cccc(C)c1N", "CLASS LABEL": "inactive"}
{"COMPOUND": "Oc1ccc(Cl)cc1Cl", "CLASS LABEL": "inactive"}
{"COMPOUND": "O=C(NC(=O)c1c(F)cccc1F)Nc1cc(Cl)c(OC(F)(F)C(F)F)c(Cl)c1", "CLASS LABEL": "inactive"}
{"COMPOUND": "Clc1ccc(C(c2ccccc2Cl)C(Cl)(Cl)Cl)cc1 (stereo unspecified)", "CLASS LABEL": "inactive"}

Challenge: Please let me know the test result on file for C[C@]12CCC(=O)C=C1CC[C@@H]1[C@@H]2CC[C@@]2(C)[C@H]1CC[C@]2(C)O .
Response given: inactive

Challenge: Please let me know the test result on file for CCCCCCOC(=O)c1ccccc1C(=O)OCCCCCC .
Response given: inactive

Challenge: Please let me know the test result on file for Nc1ccc(-c2ccc(N)cc2)cc1 .
Response given: active

Challenge: Please let me know the test result on file for Cc1ccc(O)c(C)c1 .
Response given: inactive

Challenge: Please let me know the test result on file for Cc1cc(O)ccc1Cl .
Response given: inactive

Challenge: Please let me know the test result on file for ClC1=C(Cl)[C@]2(Cl)[C@@H]3[C@H]4C[C@H]([C@@H]5O[C@H]45)[C@@H]3[C@@]1(Cl)C2(Cl)Cl .
Response given: inactive

Challenge: Please let me know the test result on file for CC#Cc1cc(C)nc(Nc2ccccc2)n1 .
Response given: inactive
